Test system: breast cancer cell lines (e.g. MDA-MB-231, SK-BR-3, MDA-MB-468, HCC1954)
assay-overview: Cell based assay, cell viability (CellTiter-Glo), breast cancer cell lines
measurement-conditions: Homo sapiens; SK-BR-3 cells; 72 hours treatment; CellTiter-Glo cell viability; read-out: IC50, Breast cancer cell line SK-BR-3
Text: Commercially available bladder cancer, prostate cancer, lung cancer, breast cancer, blood cancer, pancreatic cancer, colorectal cancer, brain cancer, neuroblastoma, melanoma, liver cancer, cervical carcinoma, ovarian cancer, renal cancer, and papilloma cell lines were each treated with trypsin-EDTA and cultured, followed by being seeded in each well of a 96 well plate. […]
attribute-measured: pIC50
Conceptually, pIC50 converts a concentration in mol/L into minus its log10.

# molecule, pIC50
measured = [
    ("Cc1cc(C[S+]([O-])c2[nH]c3c(Br)ccc(Cl)c3c(=O)c2C(=O)C2CC2)no1 (stereo not shown)", 6.01),
]

Now, please, on to the next molecule.
[ask] Which pIC50 value belongs to COc1cccc2[nH]c([S+]([O-])Cc3cc(C)on3)c(C(C)=O)c(=O)c12 (stereo not shown) ?
[reply] 5.73

###

System: colorectal cancer cell lines (e.g. DLD-1, HCT 116, SW620, HCT-15, HCT-8, RKO)
assay-overview: Cell based assay, cell viability (CellTiter-Glo), colorectal cancer cell lines
measurement-conditions: Homo sapiens, LoVo cells, 72 hours treatment, read-out: IC50, colorectal cancer cell line LoVo
Source text: Commercially available bladder cancer, prostate cancer, lung cancer, breast cancer, blood cancer, pancreatic cancer, colorectal cancer, brain cancer, neuroblastoma, melanoma, liver cancer, cervical carcinoma, ovarian cancer, renal cancer, and papilloma cell lines were each treated with trypsin-EDTA and cultured, followed by being seeded in each well of a 96 well plate. […]
Parameter pIC50: see the listing below.
In textbook form, pIC50 equals minus log to base ten of the concentration in mol/L.

# molecule, pIC50
measured = [
    ("Cc1cc(C[S+]([O-])c2[nH]c3c(Cl)ccc(Cl)c3c(=O)c2C(=O)C(C)C)no1 (stereo not shown) [Compound 86]", 5.94),
]

Kindly review the next molecule as well.
[ask] If you can, please state the reported pIC50 value of CC(=O)c1c([S+]([O-])Cc2ccc(C(F)(F)F)nc2C)[nH]c2c(Br)ccc(Cl)c2c1=O (stereo not shown) [Compound 102] .
[reply] 5.71

###

Below, each entry is listed alongside its reported IC50.
Test system: lung cancer cell lines (e.g. NCI-H23, NCI-H1229)
assay-overview: Cell based assay, cell viability (CellTiter-Glo), lung cancer cell lines
measurement-conditions: Homo sapiens; NCI-H522 cells; 72 hours treatment; CellTiter-Glo; read-out: IC50, lung cancer cell line NCI-H522

# compound, measured-target, IC50
rows = [
    ("CC(=O)c1c(S(=O)(=O)Cc2ccccc2)[nH]c2c(Br)ccc(Cl)c2c1=O [Compound 34]", "lung cancer cell lines (e.g. NCI-H23, NCI-H1229)", "> 2 µM"),
]

[ask] Entry CC(=O)c1c([S+]([O-])Cc2ccc(SC(F)(F)F)cc2)[nH]c2c(Br)ccc(Cl)c2c1=O (stereo not drawn) [Compound 56] : reported IC50 = ?
[reply] > 2 µM

[ask] I'd like to know its IC50. The compound in question is CC(=O)c1c(SCc2cccc(I)c2)[nH]c2c(Br)ccc(Cl)c2c1=O [Compound 47]
[reply] > 2 µM

[ask] Which IC50 value belongs to CC(=O)c1c([S+]([O-])Cc2c(F)cccc2Cl)[nH]c2c(Br)ccc(Cl)c2c1=O (stereo not drawn) [Compound 74] ?
[reply] > 2 µM

[ask] I have this compound here, CC(=O)c1c([S+](C)[O-])[nH]c2c(Cl)ccc(Cl)c2c1=O (stereo not drawn) [Compound 6] , and I need its recorded IC50.
[reply] > 2 µM

[ask] Bench note: what IC50 did CC(=O)c1c([S+]([O-])Cc2ccc(C(F)(F)F)cc2)[nH]c2c(Br)ccc(Cl)c2c1=O (stereo not drawn) [Compound 70] show?
[reply] > 2 µM

###

System: blood cancer cell lines (e.g. HL-60, Jurkat, Raji, Ramos, Daudi, MOLT-4)
assay-overview: Cell based assay, cell viability (CellTiter-Glo), blood cancer cell lines
measurement-conditions: Homo sapiens, blood cancer cell line Daudi, 72 hours, read-out: IC50, Daudi
pIC50: −log10 of the molar value.
# pIC50 annotations

Worked cases, pIC50 given:
# molecule, pIC50
data = [
    ("CC(=O)c1c([S+]([O-])Cc2cc(F)cc(S(F)(F)(F)(F)F)c2)[nH]c2c(Br)ccc(Cl)c2c1=O (centres unmarked)", 5.78),
    ("CC(=O)c1c([S+]([O-])Cc2ccccc2)nc2c(Br)ccc(Cl)c2c1O (centres unmarked)", "< 5.70"),
    ("CC(=O)c1c([S+]([O-])Cc2cccc(S(F)(F)(F)(F)F)c2)[nH]c2c(Br)ccc(Cl)c2c1=O (centres unmarked)", 5.85),
    ("CC(=O)c1c([S+]([O-])Cc2ccc(Cl)nc2)[nH]c2c(Br)ccc(Cl)c2c1=O (centres unmarked)", 5.94),
    ("CC(=O)c1c([S+]([O-])CN2C(=O)c3ccccc3C2=O)[nH]c2c(Cl)ccc(Cl)c2c1=O (centres unmarked)", "< 5.70"),
    ("CSc1c(C(C)=O)c(=O)c2c(Cl)ccc(Br)c2n1C", "< 5.70"),
    ("CC(=O)c1c([S+]([O-])Cc2cccc(I)c2)[nH]c2c(Br)ccc(Cl)c2c1=O (centres unmarked)", "< 5.70"),
]

Now look at this one.
[ask] Given the molecule CC(=O)c1c(SCc2cccc(C#N)c2)[nH]c2c(Br)ccc(Cl)c2c1=O , what is its reported pIC50?
[reply] < 5.70

###

Test system: breast cancer cell lines (e.g. MDA-MB-231, SK-BR-3, MDA-MB-468, HCC1954)
assay-overview: Cell based assay, cell viability (CellTiter-Glo), breast cancer cell lines
measurement-conditions: Homo sapiens; Breast cancer cell line BT-20; 72 hours; CellTiter-Glo; read-out: IC50, BT-20
Source text: Commercially available bladder cancer, prostate cancer, lung cancer, breast cancer, blood cancer, pancreatic cancer, colorectal cancer, brain cancer, neuroblastoma, melanoma, liver cancer, cervical carcinoma, ovarian cancer, renal cancer, and papilloma cell lines were each treated with trypsin-EDTA and cultured, followed by being seeded in each well of a 96 well plate. […]
attribute-measured: IC50

# annotated cases, reported IC50 shown
# compound, data-value
records = [
    ("CSc1c(C(C)=O)c(=O)c2c(Cl)ccc(Br)c2n1S(C)(=O)=O", "> 2000 nM"),
    ("CC(=O)c1c([S+]([O-])c2ccc(Br)cc2)[nH]c2c(Br)ccc(Cl)c2c1=O (stereo not shown)", "> 2000 nM"),
    ("CC(=O)c1c([S+]([O-])Cc2ccc([N+](=O)[O-])cc2)[nH]c2c(Cl)ccc(Cl)c2c1=O (stereo not shown)", "> 2000 nM"),
]

[ask] Name the reported IC50 value associated with the compound COc1cc(S(F)(F)(F)(F)F)ccc1C[S+]([O-])c1[nH]c2c(Br)ccc(Cl)c2c(=O)c1C(C)=O (stereo not shown)
[reply] > 2000 nM

###

Catalogue of pIC50 values
Tested on: prostate cancer cell lines (e.g. DU145/TXR)
assay-overview: Cell based assay, cell viability (CellTiter-Glo), prostate cancer cell lines
measurement-conditions: Homo sapiens, PC-3 cells, 72 hours treatment, final concentration 0 to 2 μM, read-out: IC50, prostate cancer cell line PC-3
From the text: Commercially available bladder cancer, prostate cancer, lung cancer, breast cancer, blood cancer, pancreatic cancer, colorectal cancer, brain cancer, neuroblastoma, melanoma, liver cancer, cervical carcinoma, ovarian cancer, renal cancer, and papilloma cell lines were each treated with trypsin-EDTA and cultured, followed by being seeded in each well of a 96 well plate. […]
# pIC50 is unitless: minus log10 of the molar concentration; print number only

Study these solved cases before continuing.
# molecule, measured-target, pIC50
data = [
    ("CC(=O)c1c([S+]([O-])Cc2ccc(F)cc2F)[nH]c2c(Br)ccc(Cl)c2c1=O (centres unmarked)", "prostate cancer cell lines (e.g. DU145/TXR)", 5.84),
    ("COc1cccc(C[S+]([O-])c2[nH]c3c(Br)ccc(Cl)c3c(=O)c2C(C)=O)c1 (centres unmarked)", "prostate cancer cell lines (e.g. DU145/TXR)", 5.71),
    ("CC(=O)c1c([S+]([O-])Cc2ccc(F)c(Cl)c2)[nH]c2c(Br)ccc(Cl)c2c1=O (centres unmarked)", "prostate cancer cell lines (e.g. DU145/TXR)", 5.85),
    ("CC(=O)c1c([S+]([O-])Cc2cccc(F)c2)[nH]c2c(Br)ccc(Cl)c2c1=O (centres unmarked)", "prostate cancer cell lines (e.g. DU145/TXR)", 5.80),
]

[ask] Consider the molecule shown here: CC(=O)c1c([S+]([O-])Cc2ccc(C(F)(F)F)o2)[nH]c2c(Br)ccc(Cl)c2c1=O (centres unmarked) What is its recorded pIC50?
[reply] 5.89
